Origin of measurements: ChEMBL document CHEMBL5537159

Test: Elimination half life in human at 200 mg/kg, po administered as single dose and measured upto 144 hrs
Type: ADME, organism-based
Conditions: in vivo, read-out: beta t1/2 (converted)
parameter measured: half-life (h)
Provide the reading as a plain figure in h.

Which measured half-life value corresponds to Cc1ccc(NC(=O)C[C@H](CCC(=O)O)c2noc([C@H]3C[C@@H](CC(C)(C)C)C3)c2C2CC2)c(Cl)c1 ? 12.4

---

Assay: AUCinfinity in CD(SD) rat at 3 mg/kg, po administered as single dose and measured after 24 hrs
Format: ADME, organism-based
Conditions: in vivo
parameter measured: AUC(0-inf) (µM·h)
Kindly answer with a numeric value in µM·h, unit omitted.

>>> assay_result("Cc1ccc(NC(=O)C[C@H](CCC(=O)O)c2nnn([C@H]3C[C@@H](CC(C)(C)C)C3)c2C2CC2)c(Cl)c1")
2.8

Let's switch to this compound now.
# input compound: Cc1ccc(NC(=O)C[C@H](CCC(=O)O)n2nnc([C@H]3C[C@@H](CC(C)(C)C)C3)c2C2CC2)c(Cl)c1 ; wanted: its AUC(0-inf) 2

---

Test: Cmax in human at 30 […], po administered as single dose and measured upto 144 hrs
Type: ADME, organism-based
Conditions: in vivo
parameter measured: Cmax (µg/mL)
Just the number in µg/mL, nothing appended.

Given the entry Cc1ccc(NC(=O)C[C@H](CCC(=O)O)c2noc([C@H]3C[C@@H](CC(C)(C)C)C3)c2C2CC2)c(Cl)c1 , report its measured Cmax. 1.22

---

Experiment: Elimination half life in human at 1000 mg/kg, po administered as single dose and measured upto 144 hrs
Type: ADME, organism-based
Details: in vivo, read-out: beta t1/2 (converted)
parameter measured: half-life

Looking for the measured half-life of Cc1ccc(NC(=O)C[C@H](CCC(=O)O)c2noc([C@H]3C[C@@H](CC(C)(C)C)C3)c2C2CC2)c(Cl)c1 , can you help? 7.91 h

---

Assay: Elimination half life in Beagle dog at 1 mg/kg, iv administered as single dose and measured after 24 hrs
Assay type: ADME, organism-based, Canis lupus familiaris
Details: in vivo, read-out: beta t1/2 (converted)
parameter measured: half-life (h)
Just the number in h, nothing appended.

Entry Cc1ccc(NC(=O)C[C@H](CCC(=O)O)c2noc([C@H]3C[C@@H](CC(C)(C)C)C3)c2C2CC2)c(Cl)c1 has what half-life? 5.5

---

Test: AUClast in human at 30 mg/kg, po administered as single dose and measured upto 144 hrs
Format: ADME, organism-based
Settings: in vivo
parameter measured: AUC(0-t) at 144 h (ng·h/mL)
The reply should contain only the number, in ng·h/mL.

Please give the measured AUC(0-t) at 144 h for this compound: Cc1ccc(NC(=O)C[C@H](CCC(=O)O)c2noc([C@H]3C[C@@H](CC(C)(C)C)C3)c2C2CC2)c(Cl)c1 6030

---

Assay: Cmax in human at 60 […], po administered as single dose and measured upto 144 hrs
Type: ADME, organism-based
Conditions: in vivo
parameter measured: Cmax (ng/mL)
Answer in ng/mL, number only, no unit symbol.

Looking for the measured Cmax of Cc1ccc(NC(=O)C[C@H](CCC(=O)O)c2noc([C@H]3C[C@@H](CC(C)(C)C)C3)c2C2CC2)c(Cl)c1 , can you help? 2260

---

Target: UniProt:P08908
Sequence (P08908 whole entry): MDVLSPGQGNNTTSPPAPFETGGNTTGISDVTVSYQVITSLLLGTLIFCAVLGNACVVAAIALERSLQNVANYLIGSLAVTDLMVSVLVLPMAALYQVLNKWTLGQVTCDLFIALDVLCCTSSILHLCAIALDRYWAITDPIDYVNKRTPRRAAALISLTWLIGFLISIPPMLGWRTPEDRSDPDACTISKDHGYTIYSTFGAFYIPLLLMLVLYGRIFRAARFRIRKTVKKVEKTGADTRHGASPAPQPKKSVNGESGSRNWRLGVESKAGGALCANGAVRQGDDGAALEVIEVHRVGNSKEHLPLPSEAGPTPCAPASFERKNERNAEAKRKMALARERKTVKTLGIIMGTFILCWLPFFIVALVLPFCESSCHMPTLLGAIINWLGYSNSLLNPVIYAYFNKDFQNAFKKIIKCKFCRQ
parameter measured: IC50

Consider the compound Cc1ccc(NC(=O)C[C@H](CCC(=O)O)c2noc([C@H]3C[C@@H](CC(C)(C)C)C3)c2C2CC2)c(Cl)c1 and give its measured IC50. > 10 µM

---

Test: Cmax in human at 1000 […], po administered as single dose and measured upto 144 hrs
Format: ADME, organism-based
Settings: in vivo
parameter measured: Cmax (ng/mL)
Write the number in ng/mL without appending the unit.

Fill blank: measured Cmax of the molecule Cc1ccc(NC(=O)C[C@H](CCC(=O)O)c2noc([C@H]3C[C@@H](CC(C)(C)C)C3)c2C2CC2)c(Cl)c1 is ____. 38100

---

Assay: Metabolic stability in human liver microsomes assessed as compound remaining at 5 umol/L measured after 60 mins by UPLC/MS analysis
Format: ADME, Microsome
Conditions: dose 5 µmol/L, read-out: Stability
Item-by-item account of remaining at 1 h, 5 µM
Answer with a number only, understood to be in %.

>>> assay_result("CC(C)C[C@H]1C[C@@H](c2onc([C@@H](CC(=O)O)CC(=O)Nc3ccc(Cl)cc3F)c2C2CC2)C1")
67
>>> assay_result("Cc1ccc(NC(=O)C[C@H](Cc2nccs2)c2nnc([C@H]3C[C@@H](CC(C)C)C3)n2C2CC2)c(C)c1")
69
>>> assay_result("Cc1ccc(NC(=O)C[C@H](CC(=O)O)c2noc([C@H]3C[C@@H](CC(C)C)C3)c2C(C)C)c(C)c1")
37

Kindly consider the entry below.
Requested field: remaining at 1 h, 5 µM. Item: C=C(C)c1c([C@@H](CC(=O)O)CC(=O)Nc2ccc(C)cc2C)noc1[C@H]1C[C@@H](CC(C)C)C1 54

---

Biological target: Cytochrome P450 2A6 (Homo sapiens)
Sequence (P11509 whole entry): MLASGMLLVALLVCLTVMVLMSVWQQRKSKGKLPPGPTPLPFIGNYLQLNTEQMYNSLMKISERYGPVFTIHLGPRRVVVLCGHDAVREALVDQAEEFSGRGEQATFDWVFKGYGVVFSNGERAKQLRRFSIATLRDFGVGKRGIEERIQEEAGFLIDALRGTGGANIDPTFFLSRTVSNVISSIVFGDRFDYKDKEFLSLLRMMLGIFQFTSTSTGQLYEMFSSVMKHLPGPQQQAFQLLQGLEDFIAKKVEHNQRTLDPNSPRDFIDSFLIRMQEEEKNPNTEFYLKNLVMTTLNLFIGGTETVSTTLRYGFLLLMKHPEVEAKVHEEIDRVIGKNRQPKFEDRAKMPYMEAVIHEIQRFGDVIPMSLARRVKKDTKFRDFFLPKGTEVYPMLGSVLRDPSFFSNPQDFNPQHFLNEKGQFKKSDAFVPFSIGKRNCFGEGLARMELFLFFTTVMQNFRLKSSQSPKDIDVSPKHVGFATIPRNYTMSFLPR
pIC50: −log10 of the molar value.
parameter measured: pIC50

Data request, read-out pIC50, for Cc1ccc(NC(=O)C[C@H](CCC(=O)O)c2noc([C@H]3C[C@@H](CC(C)(C)C)C3)c2C2CC2)c(Cl)c1 < 5.00

---

Experiment: Apparent permeability in human Caco-2 cells at 25 umol/L incubated for 2 hrs by LC/MS/MS analysis
Assay type: ADME, cell-based
Details: dose 25 µmol/L
Catalogue of compounds with associated Papp at 2 h, 25 µM
Give just the numeric value; ×10⁻⁶ cm/s need not be written.

Study these solved cases before continuing.
>>> assay_result("CCc1c([C@@H](CC(=O)O)CC(=O)Nc2ccc(C)cc2C)noc1[C@H]1C[C@@H](CC(C)C)C1")
37.9
>>> assay_result("Cc1ccc(NC(=O)C[C@H](CC(=O)O)c2noc([C@H]3C[C@@H](CC(C)C)C3)c2C2CC2)c(C)c1C")
21.8
>>> assay_result("Cc1ccc(NC(=O)CC(Cc2ncco2)c2nnc([C@H]3C[C@@H](CC(C)C)C3)n2C2CC2)c(C)c1 (mixture of isomers)")
27

May I ask what Papp at 2 h, 25 µM has been recorded for C=C(C)c1c([C@@H](CC(=O)O)CC(=O)Nc2ccc(C)cc2C)noc1[C@H]1C[C@@H](CC(C)C)C1 ? 27.6

# get_value(readout='Papp at 2 h, 25 µM', item= Cc1ccc(NC(=O)CC(CCC(=O)O)c2ncnc([C@H]3C[C@@H](CC(C)(C)C)C3)c2C2CC2)c(Cl)c1 (mixture of isomers) ) 20.7

What does the record list as Papp at 2 h, 25 µM for Cc1ccc(NC(=O)C[C@@H](c2noc([C@H]3C[C@@H](CC(C)C)C3)c2C2CC2)C(C)(C)CC(=O)O)c(C)c1 ? 27.7

Papp at 2 h, 25 µM for Cc1ccc(NC(=O)C[C@H](CCC(=O)O)C(=O)N(C[C@H]2C[C@@H](CC(C)(C)C)C2)C2CC2)c(Cl)c1 (mixture of isomers) ? 30.6

---

Experiment: Elimination half life in human at 60 mg/kg, po administered as single dose and measured upto 144 hrs
Type: ADME, organism-based
Conditions: in vivo, read-out: beta t1/2 (converted)
parameter measured: half-life (h)
# unit: h | format: bare number

Report half-life for Cc1ccc(NC(=O)C[C@H](CCC(=O)O)c2noc([C@H]3C[C@@H](CC(C)(C)C)C3)c2C2CC2)c(Cl)c1 please. 5.49

---

Biological target: Histamine H1 receptor (Homo sapiens, UniProt P35367)
Sequence (P35367 whole entry): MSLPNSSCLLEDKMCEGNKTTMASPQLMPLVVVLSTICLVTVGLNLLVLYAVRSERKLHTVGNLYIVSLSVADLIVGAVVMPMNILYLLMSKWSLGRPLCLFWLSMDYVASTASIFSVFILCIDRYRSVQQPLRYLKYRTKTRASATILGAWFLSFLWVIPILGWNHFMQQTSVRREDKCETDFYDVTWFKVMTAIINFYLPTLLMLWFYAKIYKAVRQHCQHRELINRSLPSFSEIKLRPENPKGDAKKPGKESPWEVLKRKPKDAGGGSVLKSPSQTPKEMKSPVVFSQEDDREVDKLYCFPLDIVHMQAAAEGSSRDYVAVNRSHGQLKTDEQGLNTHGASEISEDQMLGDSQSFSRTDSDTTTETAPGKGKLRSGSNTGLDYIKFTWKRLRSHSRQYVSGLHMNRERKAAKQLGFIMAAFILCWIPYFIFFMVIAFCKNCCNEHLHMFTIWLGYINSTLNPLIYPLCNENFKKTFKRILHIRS
pIC50: −log10 of the molar value.
parameter measured: pIC50

Find the measured pIC50: item Cc1ccc(NC(=O)C[C@H](CCC(=O)O)c2noc([C@H]3C[C@@H](CC(C)(C)C)C3)c2C2CC2)c(Cl)c1 , target or system Histamine H1 receptor (Homo sapiens, UniProt P35367). < 5.00
